For each of the molecules below, state its %Inh.
Tested on: TRPM6
stated.conditions: concentration: 1 μM, replicates: in singlicate; n = 1;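 also: KINOMEscan kinase panel screen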
Entry rule: numbers only, all in %.

Item: CN(C)S(=O)(=O)c1cc(-c2ccc3nccc(-c4cccc(S(N)(=O)=O)c4)c3c2)cnc1N | %Inh: 4

Item: COc1cc(Nc2nccc(N3CCC(NC(=O)Nc4cccc(C(C)=O)c4)C3)n2)cc(OC)c1OC (centres unmarked) | %Inh: 41

Item: CCn1c(-c2nonc2N)nc2c(C#CC(C)(C)O)ncc(OCCCCN)c21.O=C(O)C(F)(F)F.O=C(O)C(F)(F)F | %Inh: 0

Item: Cl.NC(=O)c1cccc(Nc2nccc(Nc3ccc(Oc4c(Cl)cccc4Cl)c(Cl)c3)n2)c1 | %Inh: 36

Item: CC(=O)N1CCN(c2ccc(Nc3nccc(-c4sc(C(C)C)nc4-c4cccc(NS(=O)(=O)c5cccc(Cl)c5)c4)n3)cn2)CC1 | %Inh: 41

Item: CCc1ccc(-c2ccc3c(c2)-c2c(cnn2C)S(=O)(=O)N3C)cc1 | %Inh: 1

Item: c1ccc(-c2cnc3nccnn23)cc1 | %Inh: 29

Item: Cl.Cl.NCC(C(=O)Nc1cc(Br)c(-c2ccnc3[nH]ccc23)s1)c1ccccc1 (centres unmarked) | %Inh: 7

Item: Cn1cc(-c2ccc3c(c2)CCN3C(=O)Cc2cccc(Cl)c2)c2c(N)ncnc21 | %Inh: 0

Item: Cc1ccc(C(=O)Nc2ccc(Nc3ccnc4cc(-c5nccs5)ccc34)cc2O)cc1.Cl | %Inh: 29

Item: Cn1cc(-c2[nH]c3cc(NC(=O)[C@H](N)C4CCCCC4)cc4c3c2C=NNC4=O)cn1 | %Inh: 11

====

System: ANKK1
stated.conditions: concentration: 1 μM, replicates: in singlicate; n = 1
%Inh under 10% gets 1, anything at or over 10% gets -1.

Req: is_below(%Inh, 10%) for Cl.Cl.NCC(C(=O)Nc1cc(Br)c(-c2ccnc3[nH]ccc23)s1)c1ccccc1 (stereo not shown) ?
Resp: 1

Req: is_below(%Inh, 10%) for COc1cc(Nc2nccc(-c3c(-c4cccc(NC(=O)c5c(F)cccc5F)c4)nn4ccccc34)n2)cc(OC)c1OC ?
Resp: -1

Req: is_below(%Inh, 10%) for COc1cccc(C(=O)Nc2cccc(Oc3ccc4nc(NC(=O)C5CC5)cn4n3)c2)c1 ?
Resp: 1

Req: is_below(%Inh, 10%) for CC(C)c1nc(-c2cccc(NS(=O)(=O)c3c(F)cccc3F)c2F)c(-c2ccnc(Nc3ccc(N4CCOCC4)nc3)n2)s1 ?
Resp: -1

Req: is_below(%Inh, 10%) for Cc1ccc(C(=O)Nc2ccc(Nc3ccnc4cc(-c5nccs5)ccc34)cc2O)cc1.Cl ?
Resp: -1

Req: is_below(%Inh, 10%) for Cl.c1ccc(-c2ccc3c(Nc4ccc5[nH]ccc5c4)ccnc3c2)nc1 ?
Resp: -1

Req: is_below(%Inh, 10%) for Cc1ccc(S(=O)(=O)Nc2ccc(Nc3nccc(Nc4cccc5[nH]ncc45)n3)cc2)cc1 ?
Resp: 1

Req: is_below(%Inh, 10%) for COc1ccc(-c2coc3ccc(-c4nnc(SCc5ccc(OC)c(C(F)(F)F)c5)o4)cc23)cc1 ?
Resp: -1

Req: is_below(%Inh, 10%) for CCn1c(-c2nonc2N)nc2c(C#CC(C)(C)O)ncc(OCCCCN)c21.O=C(O)C(F)(F)F.O=C(O)C(F)(F)F ?
Resp: 1

Req: is_below(%Inh, 10%) for Oc1cc(Nc2ccnc3cc(I)ccc23)ccc1F ?
Resp: 1
